Tested on: P93_24
Assay: qHTS profiling for inhibitors of Plasmodium falciparum proliferation (AID 504749); further: nearly all actives have a fitted effect of over 60% in size
Settings: P. falciparum in erythrocytes, SYBR Green DNA, 72 h; series mostly up to 28.7 µM
Results filed as inconclusive are left out. The source made the active and inactive calls. The call rests on the fitted dose curve; in most records, active means well fitted inhibition curve with a large enough effect; inconclusive means small, poorly fitted or top-dose-only effect; inactive means flat fitted curve, though single readings scatter.
Outcomes: T for active, F for inactive

compound	labelClass
Nc1ccc(C(=O)O)cc1	F
CCOc1ccc(Cc2nccc3cc(OCC)c(OCC)cc23)cc1OCC	F
NC(CO)(CO)CO	F
COc1cc(C(=S)N2CCOCC2)cc(OC)c1OC	F
CC(C)(C)CC(C)(C)c1ccc(OCCOCC[N+](C)(C)Cc2ccccc2)cc1	T
COc1c2occc2c(OC)c2c(=O)cc(C)oc12	F
CN(C)C(=S)SC(=S)N(C)C	T
CN=C(NC#N)NCCSCc1csc(N=C(N)N)n1	F
CCCN1CCCC[C@H]1C(=O)Nc1c(C)cccc1C	F
OCc1ccccc1O	F
COC1=CC(=O)C[C@@H](C)[C@]12Oc1c(Cl)c(OC)cc(OC)c1C2=O	F
C[C@H]1[C@H](NC(=O)/C(=N/OC(C)(C)C(=O)O)c2csc(N)n2)C(=O)N1S(=O)(=O)O (stereo in doubt)	F
Cc1c(C)n(Cc2ccccc2)c2ccc(C(=O)OCCN(C)C)cc12	F
Oc1c(I)cc(Cl)c2cccnc12	F
CCCCCCCCCCCCCCCC[N+](C)(C)CC	T
CN1CCC[C@@H]1c1cccnc1	F
CCOC(=O)n1ccn(C)c1=S	F
CCN1CCN(c2cc3c(cc2F)c(=O)c(C(=O)O)cn3C2CC2)CC1	F
COc1ccc(CN2CCN(C(c3ccc(F)cc3)c3ccc(F)cc3)CC2)c(OC)c1OC	T
CO/N=C1\CN(c2nc3c(cc2F)c(=O)c(C(=O)O)cn3C2CC2)CC1CN (centres undefined)	T
C[C@@H]1CN(CCCn2c3ccccc3c3ccccc32)C[C@H](C)N1	T
CC1=C(C(=O)OC(C)C)C(c2cccc([N+](=O)[O-])c2)C(C(=O)OC2CN(C(c3ccccc3)c3ccccc3)C2)=C(N)N1 (centres undefined)	T
Oc1c(Cl)cc(Cl)cc1Sc1cc(Cl)cc(Cl)c1O	F
Oc1ccc(Cl)cc1Sc1cc(Cl)ccc1O	F
CN(C)/N=N/c1nc[nH]c1C(N)=O	F
CCOC(=O)OC(C)OC1=C(C(=O)Nc2ccccn2)N(C)S(=O)(=O)c2ccccc21 (centres undefined)	F
CCOC(=O)COc1ccc2c(C)c(CCN(CC)CC)c(=O)oc2c1Cl	F
CCCCCC=CCC=CCCCCCCCC(=O)OCC	F
Cc1cccn2c(=O)c(-c3nnn[nH]3)cnc12	F
O=C(O)c1cc2cc(Cc3cccnc3)ccc2o1	F
CC(C)(Oc1ccc(Cl)cc1)C(=O)O	F
Cc1cccc(C)c1NC(=O)CN1CCN(CCCC(c2ccc(F)cc2)c2ccc(F)cc2)CC1	T
CC(C)(CO)[C@@H](O)C(=O)NCCCO	F
CCN(CC)C(=O)/C(C#N)=C/c1cc(O)c(O)c([N+](=O)[O-])c1	F
CCn1cc(C(=O)O)c(=O)c2cnc(N3CCCC3)nc21	F
Cc1ccc(O)c2ncccc12	F
CCCCC1=NC2(CCCC2)C(=O)N1Cc1ccc(-c2ccccc2-c2nn[nH]n2)cc1	F
CCCCOc1cc(C(=O)NCCN(CC)CC)c2ccccc2n1	F
CC(=O)Oc1ccc(C(=C2CCCCC2)c2ccc(OC(C)=O)cc2)cc1	F
CCCn1c(=O)[nH]c(=O)c2[nH]cnc21	F
CCCCCCc1ccc(O)cc1O	F
O=C(COc1ccc(Cl)cc1)N1CCN(Cc2ccc3c(c2)OCO3)CC1	F
NC(CS)C(=O)O (centres undefined)	T
C[C@@H]1C(=O)NC2=Nc3cccc(Cl)c3CN21	F
O=C(Nc1ccc(Cl)c(Cl)c1)C1CC1	F
CCN1CCC[C@H]1CNC(=O)c1c(OC)ccc(Br)c1OC	F
O=C1CCC(c2ccc(-n3ccnc3)cc2)=NN1	F
NC(=O)C(=O)N/N=C/c1ccc([N+](=O)[O-])o1	F
CCN(CC)CCOc1ccc(C(O)(Cc2ccc(Cl)cc2)c2ccc(C)cc2)cc1 (centres undefined)	T
